Target: recombinant human plasminogen activator inhibitor-1 (PAI-1) (Homo sapiens, UniProt P05121)
Construct: purchased Molecular Innovations, Royal Oak, Mich
Sequence (P05121 24-402): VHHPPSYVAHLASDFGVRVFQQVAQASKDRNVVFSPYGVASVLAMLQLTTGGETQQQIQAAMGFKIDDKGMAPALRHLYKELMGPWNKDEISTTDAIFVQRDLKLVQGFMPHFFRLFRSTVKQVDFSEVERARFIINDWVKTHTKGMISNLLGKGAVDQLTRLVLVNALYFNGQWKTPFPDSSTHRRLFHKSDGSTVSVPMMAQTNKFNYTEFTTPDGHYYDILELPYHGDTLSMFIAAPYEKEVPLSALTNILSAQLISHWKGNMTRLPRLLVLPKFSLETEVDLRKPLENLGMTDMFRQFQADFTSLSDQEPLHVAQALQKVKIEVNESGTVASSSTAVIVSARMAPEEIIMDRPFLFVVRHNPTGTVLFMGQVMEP
Test: Primary screen for the PAI-1 inhibition (chromogenic tPA activity, Spectrozyme-tPA)
Format: biochemical
Conditions: compound at 100 μM
MEASURED ATTRIBUTE: inhibition at 100 µM (%)

Recorded inhibition at 100 µM, per entry:
O=c1[nH]c(=O)n(Cc2cccc(OCc3ccccc3Br)c2OCc2ccccc2Br)o1: 93
C#CCn1cc(Cn2oc(=O)[nH]c2=O)c2cc(OCc3ccc(C(F)(F)F)cc3)ccc21: 100

P. C#CCn1cc(Cn2oc(=O)[nH]c2=O)c2cc(OCc3ccc(Cl)c(Cl)c3)ccc21
Q. CCn1cc(Cn2oc(=O)[nH]c2=O)c2cc(OCc3ccc(C(C)(C)C)cc3)ccc21
Query: Pick one: P or Q . Which has the bigger inhibition at 100 µM number? Your answer should be the label attached to the chosen record.
Result: P

Cited source for all entries: patent US7141592B2
